Attribution: ChEMBL document CHEMBL6092201

Study system: UniProt:P35372
Sequence (P35372 whole entry): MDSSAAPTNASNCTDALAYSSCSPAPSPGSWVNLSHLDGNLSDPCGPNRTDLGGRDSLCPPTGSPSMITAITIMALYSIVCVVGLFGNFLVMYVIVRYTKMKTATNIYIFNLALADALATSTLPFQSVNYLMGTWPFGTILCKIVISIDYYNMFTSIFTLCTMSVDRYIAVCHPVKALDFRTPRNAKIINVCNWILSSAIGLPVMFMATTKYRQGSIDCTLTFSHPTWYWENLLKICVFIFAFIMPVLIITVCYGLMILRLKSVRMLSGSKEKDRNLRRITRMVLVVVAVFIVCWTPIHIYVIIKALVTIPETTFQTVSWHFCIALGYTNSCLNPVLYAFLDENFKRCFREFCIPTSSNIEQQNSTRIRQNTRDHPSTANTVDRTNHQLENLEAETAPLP
Method summary: Agonist activity at MOR (unknown origin) assessed as beta-arrestin2 recruitment at 10 uM incubated for 90 to 180 mins by chemiluminescence based microplate reader assay relative to control
Type: functional
Condition summary: time 90-180 min
Endpoint: Activity (%)
Report as a plain number; the unit % is understood.

For orientation, consider the following solved cases.
[[record]]
molecule = "COc1ccc2cc(CC(C)N/C(=N\\C#N)NC[C@H](Cc3ccccc3)N(C)C)ccc2c1 (stereo not given in full)"
endpoint = "Activity"
measurement_unit = "%"
meas_value = -1

[[record]]
molecule = "COc1ccccc1N/C(=N\\C#N)NC[C@H](Cc1ccc(O)cc1)N(C)C"
endpoint = "Activity"
measurement_unit = "%"
meas_value = -1

[[record]]
molecule = "CC(Cc1cccnc1)N/C(=N\\C#N)NC[C@H](Cc1ccccc1)N(C)C (stereo not given in full)"
endpoint = "Activity"
measurement_unit = "%"
meas_value = -0.6


Need Activity of CC(Cc1cc[nH]n1)N/C(=N\C#N)NC[C@H](Cc1ccccc1)N(C)C (stereo not given in full) , thanks.
-0.6

Need Activity of COc1ccc(CN/C(=N\C#N)NC[C@H](Cc2ccccc2)N(C)C)cc1 , thanks.
0.9

Need Activity of CC(Cc1ccco1)N/C(=N\C#N)NC[C@H](Cc1ccccc1)N(C)C (stereo not given in full) , thanks.
-0.8

Need Activity of CN(C)[C@H](CN/C(=N/C#N)NCCc1cccc(F)c1)Cc1ccccc1 , thanks.
4.8

Need Activity of CC(Cc1ccsc1)N/C(=N\C#N)NC[C@H](Cc1ccccc1)N(C)C (stereo not given in full) , thanks.
1.9

Need Activity of CC(Cc1ccncc1)N/C(=N\C#N)NC[C@H](Cc1ccccc1)N(C)C (stereo not given in full) , thanks.
-0.5

Need Activity of CN(C)[C@H](CN/C(=N/C#N)NCCc1ccc(O)cc1)Cc1ccccc1 , thanks.
-0.9
